# Test system: SF-295 CNS
# Assay method text: NCI-60 one-dose screen, 48 h (100 = growth as untreated, 0 = no growth, -100 = all killed)
# Condition parameters: 10 µM unless noted
The panel holds about 83,000 compounds, 20% with a hit somewhere; the sample as a whole holds those more often.
// reported growth per item
API: value field is a number in %; no unit string.

Cc1c(NC(=O)CSc2nc3sc4c(c3c(=O)n2-c2ccc(Cl)cc2)CCCC4)c(=O)n(-c2ccccc2)n1C	95.5

Dear colleague, I am looking for the recorded growth of the following compound: O=C(Oc1ccc2ccc(=O)oc2c1)c1ccc(Cl)cc1
101

Dear colleague, I am looking for the recorded growth of the following compound: N/C(=N\c1nc2c(Cl)cc(Cl)cc2s1)C(Cl)(Cl)Cl
11.3

Dear colleague, I am looking for the recorded growth of the following compound: CSCCC(C(=O)O)N1C(=O)/C(=C/c2ccc(O)c(O)c2)SC1=S (stereo unspecified)
96.5

Source of measurements: PubChem BioAssay (NCI)
